Tested on: DLD-1 resistant cell line clone #82 (p97 A569A/T)
Assay: GI50 fold-change, resistant clone #82 vs parental
Format: cell-based, human
Settings: Clone #82, DLD-1, resistance generated with compound 4, G1705G/A / A569A/T; 72 hrs
Parameter: Fold Change in GI50 Compared to Parental Cell Line (fold)
Provide the reading as a plain figure in fold.

Use the examples below as a reference point.
{"columns": ["Compound", "Tested On", "Data Value"],
 "data": [
  ["Cc1cc2c(C(N)=O)cccc2n1-c1nc2c(c(NCc3ccccc3)n1)CNCC2", "DLD-1 resistant cell line clone #82 (p97 A569A/T)", 4.9],
  ["Cc1cc2c(C(N)=O)cccc2n1-c1nc2c(c(NCc3ccccc3)n1)COCC2", "DLD-1 resistant cell line clone #82 (p97 A569A/T)", 6.6],
  ["Cc1cc2c(CN)cccc2n1-c1nc2c(c(NCc3ccccc3)n1)CCCC2", "DLD-1 resistant cell line clone #82 (p97 A569A/T)", 4.5]
]}

Consider now this further compound.
Qu. For the compound CC(C)C[C@H](NC(=O)[C@H](Cc1ccccc1)NC(=O)c1cnccn1)B(O)O [Compound 1, reference compound] , give its reported Fold Change in GI50 Compared to Parental Cell Line.
Ans. 1.5

====

Test system: Hct116 resistant cell line clone #152 (p97 T688I)
Assay: GI50 fold-change, resistant clone #152 vs parental
Type: cell-based, human
Details: Clone #152, Hct116, resistance generated with compound 4, C2063T / T688I; 72 hrs
Fold Change in GI50 Compared to Parental Cell Line by entry:
Provide the reading as a plain figure in fold.

Use the examples below as a reference point.
{"columns": ["Molecule", "Data Value"],
 "data": [
  ["CC(C)C[C@H](NC(=O)[C@H](Cc1ccccc1)NC(=O)c1cnccn1)B(O)O [Compound 1, reference compound]", 1.0],
  ["Cc1cc2c(C(N)=O)cccc2n1-c1nc2c(c(NCc3ccccc3)n1)COCC2", 60.7]
]}

Qu. For the molecule `COc1nc2ccccc2n1-c1nc2c(c(NCc3ccccc3)n1)CCCC2` , give its reported Fold Change in GI50 Compared to Parental Cell Line.
Ans. 2.1

Qu. For the molecule `Cc1cc2c(C(N)=O)cccc2n1-c1nc2c(c(NCc3ccccc3)n1)CNCC2` , give its reported Fold Change in GI50 Compared to Parental Cell Line.
Ans. 40.2

Qu. For the molecule `Cc1cc2c(CN)cccc2n1-c1nc2c(c(NCc3ccccc3)n1)CCCC2` , give its reported Fold Change in GI50 Compared to Parental Cell Line.
Ans. 1.4

====

Tested on: Hct116 resistant cell line clone #117 (p97 L482I)
Assay: GI50 fold-change, resistant clone #117 vs parental
Type: cell-based, human
Details: Clone #117, Hct116, resistance generated with compound 4, C1444A / L482I; 72 hrs
Description: Dose titration of test compounds were conducted in Hct116, DLD-1, or LoVo cell lines. In brief, cells were plated in 384-well plates and a selected candidate drug compound was added in a 10-point 2-fold serial dilution.
Fold Change in GI50 Compared to Parental Cell Line by entry:
Provide the reading as a plain figure in fold.

Use the examples below as a reference point.
{"columns": ["Compound", "Data Value"],
 "data": [
  ["Cc1cc2c(CN)cccc2n1-c1nc2c(c(NCc3ccccc3)n1)CCCC2", 2.3],
  ["Cc1cc2c(C(N)=O)cccc2n1-c1nc2c(c(NCc3ccccc3)n1)COCC2", 3.2],
  ["CC(C)C[C@H](NC(=O)[C@H](Cc1ccccc1)NC(=O)c1cnccn1)B(O)O [Compound 1, reference compound]", 0.8]
]}

Consider now this further compound.
Qu. For the compound `Cc1cc2c(C(N)=O)cccc2n1-c1nc2c(c(NCc3ccccc3)n1)CNCC2` , give its reported Fold Change in GI50 Compared to Parental Cell Line.
Ans. 4.4

====

Tested on: Hct116 resistant cell line clone #30 (p97 F516L)
Experiment: GI50 fold-change, resistant clone #30 vs parental
Format: cell-based, human
Conditions: Clone #30, Hct116, resistance generated with compound 4, T1546C / F516L; 72 hrs
Parameter: Fold Change in GI50 Compared to Parental Cell Line (fold)
Provide the reading as a plain figure in fold.

{"columns": ["Compound", "Data Value"],
 "data": [
  ["CC(C)C[C@H](NC(=O)[C@H](Cc1ccccc1)NC(=O)c1cnccn1)B(O)O [Compound 1, reference compound]", 0.9],
  ["Cc1cc2c(C(N)=O)cccc2n1-c1nc2c(c(NCc3ccccc3)n1)COCC2 [Compound 4]", 7.1],
  ["Cc1cc2c(CN)cccc2n1-c1nc2c(c(NCc3ccccc3)n1)CCCC2 [Compound 6]", 4.1]
]}

Consider now this further compound.
Qu. Provide Hct116 resistant cell line clone #30 (p97 F516L) Fold Change in GI50 Compared to Parental Cell Line reading for Cc1cc2c(C(N)=O)cccc2n1-c1nc2c(c(NCc3ccccc3)n1)CNCC2 [Compound 3] .
Ans. 10.0

====

Tested on: Hct116 resistant cell line clone #42 (p97 P472A)
Experiment: GI50 fold-change, resistant clone #42 vs parental
Format: cell-based, human
Conditions: Clone #42, Hct116, resistance generated with compound 4, C1414G / P472A; 72 hrs
Fold Change in GI50 Compared to Parental Cell Line by entry:
Provide the reading as a plain figure in fold.

Use the examples below as a reference point.
{"columns": ["Molecule", "Readout Unit", "Data Value"],
 "data": [
  ["Cc1cc2c(C(N)=O)cccc2n1-c1nc2c(c(NCc3ccccc3)n1)CNCC2", "fold", 7.0],
  ["Cc1cc2c(C(N)=O)cccc2n1-c1nc2c(c(NCc3ccccc3)n1)COCC2", "fold", 6.1],
  ["CC(C)C[C@H](NC(=O)[C@H](Cc1ccccc1)NC(=O)c1cnccn1)B(O)O [Compound 1, reference compound]", "fold", 1.0]
]}

Qu. For the molecule `Cc1cc2c(CN)cccc2n1-c1nc2c(c(NCc3ccccc3)n1)CCCC2` , give its reported Fold Change in GI50 Compared to Parental Cell Line.
Ans. 3.5
